# Assay Explanation: NCI Yeast Anticancer Drug Screen. Data for the sgs1 mgt1 strain (AID 161)
# Stated Conditions: S. cerevisiae sgs1 mgt1 strain, at 50.0 µM
The panel holds about 79,000 compounds, 15% with a hit somewhere; the sample as a whole holds those more often. The source made the active and inactive calls. No stated cut-off is given here; in the data, active means growth inhibition above about 70%; inactive means the rest.
Reply using exactly one outcome from YES for active, NO for inactive

Before answering, review these 6 worked examples.
{"Molecule": "O=C(Oc1ccc[nH]c1=O)C1CCC1", "Class Label": "NO"}
{"Molecule": "O=[N+]([O-])c1ccc(S(=O)(=O)N/N=C/c2cccc([N+](=O)[O-])c2)cc1", "Class Label": "NO"}
{"Molecule": "COc1cc(OC(=O)/C=C2/CCC(=O)O2)c2c(c1)OC1OC(=O)CC21 (stereo unspecified)", "Class Label": "NO"}
{"Molecule": "CCOC(=O)C(NC(=O)c1ccccc1)(Nc1ccc(S(=O)(=O)Nc2ncccn2)cc1)C(F)(F)F (stereo unspecified)", "Class Label": "NO"}
{"Molecule": "O=C1Nc2cccc3cc(NCC(O)CCCl)cc1c23 (stereo unspecified)", "Class Label": "NO"}
{"Molecule": "OC(c1ccoc1)c1cc2ccccc2s1 (stereo unspecified)", "Class Label": "NO"}

Inquiry: Recorded test outcome, item CC1C(c2ccccc2)=CCON1c1ccccc1 (stereo unspecified)
Reply text: NO

Inquiry: Called result for "COc1ccccc1N=Nc1c(O)n(-c2ccccc2C)c(=S)n(-c2ccccc2OC)c1=O"
Reply text: NO

Inquiry: # fetch the recorded call for "CCSc1nc(C)cc(=O)[nH]1" here
Reply text: NO

Inquiry: // param item: "CN1C(=O)c2ccccc2N(C)C(=O)c2ccccc21" ; yields the recorded call
Reply text: NO

Inquiry: Which outcome did this test record for the molecule "O=S(=O)(O)c1cccc2c1oc1ccccc12" ?
Reply text: NO

Inquiry: GET /call?item= "O=S(=O)(O)c1ccc2c(N=Nc3cccc4ccccc34)c(O)c(S(=O)(=O)O)cc2c1" returns the recorded outcome of this test.
Reply text: NO

Inquiry: Name the outcome recorded for "O=C(c1ccc([N+](=O)[O-])cc1)c1cc2ccccc2oc1=O" in the assay.
Reply text: NO

Inquiry: Test call, this molecule: "CCN(CC)c1ccc(/C=N\N(C)C)cc1"
Reply text: NO

Each recorded value in this set is attributed to PubChem BioAssay (NCI).
